Biological target: human recombinant GABAAR containing α5β3γ2 subunits (benzodiazepine site) (Homo sapiens, UniProt P18507+P31644)
Construct: expressed in transfected cells; host or cells: mouse L(tk−) cells, dexamethasone-inducible vector pMSGneo
Sequence (P31644 32-462): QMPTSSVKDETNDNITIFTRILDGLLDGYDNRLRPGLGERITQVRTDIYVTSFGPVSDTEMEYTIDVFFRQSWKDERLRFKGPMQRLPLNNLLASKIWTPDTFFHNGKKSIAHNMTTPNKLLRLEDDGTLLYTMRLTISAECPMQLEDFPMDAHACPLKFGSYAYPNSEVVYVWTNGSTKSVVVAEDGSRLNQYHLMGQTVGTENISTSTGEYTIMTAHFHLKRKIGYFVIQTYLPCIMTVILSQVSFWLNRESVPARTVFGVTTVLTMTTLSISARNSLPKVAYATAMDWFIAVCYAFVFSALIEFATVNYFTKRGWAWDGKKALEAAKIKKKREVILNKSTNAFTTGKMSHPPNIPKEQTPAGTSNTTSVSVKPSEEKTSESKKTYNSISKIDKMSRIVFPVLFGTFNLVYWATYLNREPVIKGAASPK
Sequence (P28472 26-473 partner): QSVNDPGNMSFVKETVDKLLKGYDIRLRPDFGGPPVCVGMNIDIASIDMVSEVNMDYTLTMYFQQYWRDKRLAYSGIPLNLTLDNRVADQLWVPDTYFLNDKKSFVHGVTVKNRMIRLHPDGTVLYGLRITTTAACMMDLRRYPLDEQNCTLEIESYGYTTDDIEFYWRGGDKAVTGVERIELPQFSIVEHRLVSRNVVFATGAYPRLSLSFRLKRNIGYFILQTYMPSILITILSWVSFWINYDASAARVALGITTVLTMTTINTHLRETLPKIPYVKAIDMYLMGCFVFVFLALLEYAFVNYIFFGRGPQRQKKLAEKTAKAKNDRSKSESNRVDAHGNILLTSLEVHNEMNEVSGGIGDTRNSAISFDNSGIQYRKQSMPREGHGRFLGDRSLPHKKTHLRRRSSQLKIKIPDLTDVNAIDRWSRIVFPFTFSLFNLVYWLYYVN
Sequence (P18507 40-475): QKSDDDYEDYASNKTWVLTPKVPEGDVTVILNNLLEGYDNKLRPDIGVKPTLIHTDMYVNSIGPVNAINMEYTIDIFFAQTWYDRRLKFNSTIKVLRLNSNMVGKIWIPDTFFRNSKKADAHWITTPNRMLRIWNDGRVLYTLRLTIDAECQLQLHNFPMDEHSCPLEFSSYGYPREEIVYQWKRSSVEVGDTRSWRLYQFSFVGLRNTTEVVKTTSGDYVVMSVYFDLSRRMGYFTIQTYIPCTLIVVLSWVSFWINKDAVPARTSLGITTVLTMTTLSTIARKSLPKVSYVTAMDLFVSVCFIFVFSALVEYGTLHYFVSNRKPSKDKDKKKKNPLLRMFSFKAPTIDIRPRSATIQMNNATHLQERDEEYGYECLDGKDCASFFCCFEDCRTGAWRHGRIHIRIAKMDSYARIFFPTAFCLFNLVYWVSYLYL
Assay: In vitro radioligand binding assay (α5-GABAAR Ki)
Details: inhibition of [3H]Ro15-1788 binding, membranes of L(tk−) cells expressing human α5β3γ2; read-out: α5-GABAAR Ki
pKi: −log10 of the molar value.
Where pKi equals or exceeds 8, the correct label is met; where it does not, the label is not met.

**Query** Please tell me: is the molecule `COc1nc(-n2ccnc2)ccc1NC(=O)c1c(C)nnn1-c1ccccc1` at or over 8 in terms of pKi?
**Result** not met

**Query** Please tell me: is the molecule `COc1nc(-c2cncc(C(=O)N(C)C)c2)ccc1NC(=O)c1c(-c2ccccc2)noc1C` at or over 8 in terms of pKi?
**Result** met

**Query** Please tell me: is the molecule `COc1nc(-c2ccccn2)ccc1NC(=O)c1c(-c2ccccc2)noc1C` at or over 8 in terms of pKi?
**Result** not met

**Query** Please tell me: is the molecule `COc1nc(-c2cccc3c2CNC3=O)ccc1NC(=O)c1c(-c2ccccc2)noc1C` at or over 8 in terms of pKi?
**Result** not met

**Query** Please tell me: is the molecule `COc1nc(-c2cnoc2)cnc1NC(=O)c1c(-c2ccccc2)noc1C` at or over 8 in terms of pKi?
**Result** met

**Query** Please tell me: is the molecule `COc1nc(-c2c[nH]c(=O)c(F)c2)ccc1NC(=O)c1c(C)nnn1-c1ccccc1` at or over 8 in terms of pKi?
**Result** not met

**Query** Please tell me: is the molecule `COc1nc(-n2cnc(C#N)c2)ccc1NC(=O)c1c(-c2ccccc2)noc1C` at or over 8 in terms of pKi?
**Result** met

====

Could you please report measured α5-GABAAR Relative Efficacy (to DMCM), Qpatch for the items listed next?
Target: human α5β3γ2 GABAARs in mouse L(tk−) cells (Homo sapiens, UniProt P18507+P31644)
Construct: expressed in transfected cells; host or cells: mouse L(tk−) cells, dexamethasone-inducible vector pMSGneo
Sequence (P31644 32-462): as the sequence (P31644 32-462) above
Sequence (P28472 26-473 partner): as the sequence (P28472 26-473 partner) above
Sequence (P18507 40-475): as the sequence (P18507 40-475) above
Test: In vitro electrophysiological recording assay (α5-GABAAR relative efficacy), QPatch
Type: cell-based
Settings: Conc 0.1 μM; GABA EC10-20
Give bare numbers.

Would you please look over these solved cases?
                                   compound  obs_value
0  CNc1ncc(-c2cnc(NC(=O)c3c(-c4ccccc4)noc3C)c(OC)n2)cn1 [Example 145]      −1.12
1  Cc1onc(-c2ccc(F)cc2)c1C(=O)Nc1ccc(-c2cnc(CN)nc2)nc1OC(C)C.Cl [Example 205]      −0.61
2  COc1nc(-c2cnc(C(=O)NCCN(C)C)nc2)ccc1NC(=O)c1c(-c2ccccc2)noc1C [Example 172]      −0.80
3  COc1nc(-c2cnc(OC3CNC3)nc2)ccc1NC(=O)c1c(-c2ccccc2)noc1C [Example 189]      −0.70
4  COc1nc(-c2cnc(N)nc2)ccc1NC(=O)c1c(-c2ccccc2)noc1C [Example 43]      −0.76

Give α5-GABAAR Relative Efficacy (to DMCM), Qpatch for each listed item.
1. CNCCNC(=O)c1ncc(-c2ccc(NC(=O)c3c(-c4ccccc4)noc3C)c(OC)n2)cn1.Cl [Example 173]
2. COc1nc(-c2cnc3n2CCN(C(C)=O)C3)ccc1NC(=O)c1c(-c2ccccc2)noc1C [Example 143]
3. COc1nc(-c2cnc(CN)nc2)ccc1NC(=O)c1c(-c2ccc(F)cc2)noc1C.Cl [Example 185]

**Result**
−0.88
−0.80
−0.79

====

Target: human α5β3γ2 GABAARs in mouse L(tk−) cells (Homo sapiens, UniProt P18507+P31644)
Construct: expressed in transfected cells; host or cells: mouse L(tk−) cells, dexamethasone-inducible vector pMSGneo
Experiment: In vitro electrophysiological recording assay (α5-GABAAR relative efficacy), QPatch
Type: cell-based
Settings: Conc 0.1 μM; GABA EC10-20
Could you please report measured α5-GABAAR Relative Efficacy (to DMCM), Qpatch for the items listed next?
Numbers only.

Would you please look over these solved cases?
                                   compound  obs_value
0  COc1nc(-c2cnc(NCCN)nc2)ccc1NC(=O)c1c(-c2ccccc2)noc1C.Cl [Example 171]      −0.75
1  CNCCNc1ncc(-c2ccc(NC(=O)c3c(-c4ccccc4)noc3C)c(OC)n2)cn1.Cl [Example 170]      −0.84
2  COc1nc(-c2cnccc2N)ccc1NC(=O)c1c(-c2ccccc2)noc1C [Example 78]      −0.42

Give α5-GABAAR Relative Efficacy (to DMCM), Qpatch for each listed item.
1. CNC(=O)c1ncc(-c2ccc(NC(=O)c3c(-c4ccccc4)noc3C)c(OC)n2)cn1 [Example 75]
2. COc1nc(-c2cnc(C(N)=O)nc2)ccc1NC(=O)c1c(-c2ccccc2)noc1C [Example 129]
3. Cc1onc(-c2ccc(F)cc2)c1C(=O)Nc1ccc(-n2ccnc2)nc1OC(C)C [Example 204]
4. COc1nc(-c2cnc3n2CCOC3)ccc1NC(=O)c1c(-c2ccccc2)noc1C [Example 79]
5. COC(=O)c1ncc(-c2ccc(NC(=O)c3c(-c4ccccc4)noc3C)c(OC)n2)cn1 [Example 70]

**Result**
["−0.92", "−0.77", "−0.39", "−0.76", "−0.89"]

====

Molecular target: human recombinant GABAAR containing α5β3γ2 subunits (benzodiazepine site) (Homo sapiens, UniProt P18507+P31644)
Construct: expressed in transfected cells; host or cells: mouse L(tk−) cells, dexamethasone-inducible vector pMSGneo
Test: In vitro radioligand binding assay (α5-GABAAR Ki)
Conditions: inhibition of [3H]Ro15-1788 binding, membranes of L(tk−) cells expressing human α5β3γ2; read-out: α5-GABAAR Ki
Parameter: pKi
Give bare numbers, as −log10 of the molar value.

Would you please look over these solved cases?
In [3]: df
Out[3]:
                                   compound  obs_value
0  COc1nc(-c2ccc3c(=O)[nH]ncc3c2)ccc1NC(=O)c1c(-c2ccccc2)noc1C       8.59
1  COc1nc(-c2ccc(CN3CC4COCC(C4)C3)cc2)ccc1NC(=O)c1c(-c2ccccc2)noc1C       8.89
2  COc1nc(-c2cnoc2)ccc1NC(=O)c1c(-c2ccccc2)noc1C       8.49

Give pKi for each listed item.
1. COc1nc(-c2cc(C)nc(N)c2)ccc1NC(=O)c1c(-c2ccccc2)noc1C
2. Cc1onc(-c2ccc(F)cc2)c1C(=O)Nc1ccc(-c2cnc(CN)nc2)nc1OC(C)C.Cl [Example 205, hydrochloride]
3. COc1nc(-c2ccc(=O)n(C)c2)ccc1NC(=O)c1c(-c2ccccc2)noc1C
4. COc1nc(-c2cnc(CN3CCOCC3)nc2)ccc1NC(=O)c1c(-c2ccccc2)noc1C
5. COc1nc(-c2cnc(C(F)(F)F)nc2)ccc1NC(=O)c1c(-c2ccccc2)noc1C
6. COc1nc(-c2cn[nH]c2)ccc1NC(=O)c1c(-c2ccccc2)noc1C

**Result**
8.10
9.40
8.28
8.72
8.62
8.10

====

Target: human recombinant GABAAR containing α5β3γ2 subunits (benzodiazepine site) (Homo sapiens, UniProt P18507+P31644)
Construct: expressed in transfected cells; host or cells: mouse L(tk−) cells, dexamethasone-inducible vector pMSGneo
Assay: In vitro radioligand binding assay (α5-GABAAR Ki)
Conditions: inhibition of [3H]Ro15-1788 binding, membranes of L(tk−) cells expressing human α5β3γ2; read-out: α5-GABAAR Ki
pKi: −log10 of the molar value.
Where pKi equals or exceeds 8, the correct label is t; where it does not, the label is f.

**Query** Please tell me: is the compound `COc1nc(-c2ccc(CO)cc2)ccc1NC(=O)c1c(-c2ccccc2)noc1C` at or over 8 in terms of pKi?
**Result** t

**Query** Please tell me: is the compound CNCc1ncc(-c2ccc(NC(=O)c3c(-c4ccccc4)noc3C)c(OC)n2)cn1.Cl [Example 168, hydrochloride] at or over 8 in terms of pKi?
**Result** t

**Query** Please tell me: is the compound `COc1nc(-c2nnco2)ccc1NC(=O)c1c(-c2ccccc2)noc1C` at or over 8 in terms of pKi?
**Result** f

**Query** Please tell me: is the compound `CCn1nc(-c2nccs2)cc1-c1ccc(NC(=O)c2c(-c3ccccc3)noc2C)c(OC)n1` at or over 8 in terms of pKi?
**Result** f

====

Molecular target: human recombinant GABAAR containing α5β3γ2 subunits (benzodiazepine site) (Homo sapiens, UniProt P18507+P31644)
Construct: expressed in transfected cells; host or cells: mouse L(tk−) cells, dexamethasone-inducible vector pMSGneo
Test: In vitro radioligand binding assay (α5-GABAAR Ki)
Settings: inhibition of [3H]Ro15-1788 binding, membranes of L(tk−) cells expressing human α5β3γ2; read-out: α5-GABAAR Ki
pKi: −log10 of the molar value. Where a name gives a salt, the structure may show the parent alone.
// map pKi to label using LOW = under 8, MEDIUM = from 8 up to 9, HIGH = 9 and over

For orientation, consider the following solved cases.
                                   molecule  assigned_class
0  COc1nc(-c2ncccn2)ccc1NC(=O)c1c(-c2ccccc2)noc1C             LOW
1  COc1cc(-n2ccnc2)ccc1NC(=O)c1c(C)nnn1-c1ccccc1             LOW

**Query** Just checking, what class would you give COc1cc(-c2cnc(N)nc2)ccc1NC(=O)c1c(-c2ccccc2)noc1C [Example 197, hydrochloride] here?
**Result** HIGH

**Query** Just checking, what class would you give `CNc1nc(C)c(-c2ccc(NC(=O)c3c(-c4ccccc4)noc3C)c(OC)n2)c(C)n1` here?
**Result** LOW

**Query** Just checking, what class would you give COc1nc(-c2cnc3n2CCNC3)ccc1NC(=O)c1c(-c2ccccc2)noc1C.Cl [Example 138, hydrochloride] here?
**Result** MEDIUM

**Query** Just checking, what class would you give `COc1nc(-c2cnc3n2CCN(C(C)=O)C3)ccc1NC(=O)c1c(-c2ccccc2)noc1C` here?
**Result** HIGH

**Query** Just checking, what class would you give `COc1nc(-c2ncn3c2CN(C)CC3)ccc1NC(=O)c1c(-c2ccccc2)noc1C` here?
**Result** LOW

**Query** Just checking, what class would you give COc1nc(-c2cnc(N3CCCC(CO)C3)nc2)ccc1NC(=O)c1c(-c2ccccc2)noc1C (stereo not shown) here?
**Result** MEDIUM

**Query** Just checking, what class would you give `COc1nc(-c2cnc3n2CCOC3)cnc1NC(=O)c1c(-c2ccccc2)noc1C` here?
**Result** MEDIUM
